# System: UniProtKB P48736
# Sequence (P48736 whole entry, looked up): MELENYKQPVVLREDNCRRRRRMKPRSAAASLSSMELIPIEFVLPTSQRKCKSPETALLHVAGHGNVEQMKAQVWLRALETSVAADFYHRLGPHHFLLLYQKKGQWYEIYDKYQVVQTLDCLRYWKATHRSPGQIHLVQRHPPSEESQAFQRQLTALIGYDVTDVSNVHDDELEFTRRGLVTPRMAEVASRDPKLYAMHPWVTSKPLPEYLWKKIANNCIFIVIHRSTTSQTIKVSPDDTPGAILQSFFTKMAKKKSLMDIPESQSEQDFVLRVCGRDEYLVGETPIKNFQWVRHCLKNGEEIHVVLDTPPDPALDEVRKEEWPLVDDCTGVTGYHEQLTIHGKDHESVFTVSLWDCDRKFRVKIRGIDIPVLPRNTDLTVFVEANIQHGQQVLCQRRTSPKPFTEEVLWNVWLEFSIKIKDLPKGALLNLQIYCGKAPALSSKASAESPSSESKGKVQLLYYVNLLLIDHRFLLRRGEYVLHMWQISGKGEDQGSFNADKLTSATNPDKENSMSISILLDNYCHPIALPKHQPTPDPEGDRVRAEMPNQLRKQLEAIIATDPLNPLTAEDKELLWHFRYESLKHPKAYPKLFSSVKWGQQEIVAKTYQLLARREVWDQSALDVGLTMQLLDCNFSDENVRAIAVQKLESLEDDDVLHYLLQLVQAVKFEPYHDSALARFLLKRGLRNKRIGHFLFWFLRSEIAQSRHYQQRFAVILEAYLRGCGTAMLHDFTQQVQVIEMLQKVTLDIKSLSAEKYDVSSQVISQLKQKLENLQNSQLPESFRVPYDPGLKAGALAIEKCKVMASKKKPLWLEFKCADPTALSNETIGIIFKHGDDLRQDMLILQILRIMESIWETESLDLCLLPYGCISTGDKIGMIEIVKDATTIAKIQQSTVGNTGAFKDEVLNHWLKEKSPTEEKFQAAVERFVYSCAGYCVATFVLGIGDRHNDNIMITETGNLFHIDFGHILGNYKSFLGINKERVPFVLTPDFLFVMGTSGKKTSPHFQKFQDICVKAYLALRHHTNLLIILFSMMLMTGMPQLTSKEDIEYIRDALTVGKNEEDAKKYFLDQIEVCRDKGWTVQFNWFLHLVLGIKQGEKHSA
# Assay name: Assessment of PI3KCG Kinase Activity
Each record here notes measured IC50.
Property label: IC50

Cpd smiles | Property label | Result
Cc1csc2nc(Cn3nc(C#C[C@@H](C)O)c4c(N)ncnc43)n(-c3ccccc3F)c(=O)c12 | IC50 | < 100 nM
Cc1csc2nc(Cn3nc(-c4cccc(O)c4)c4c(N)ncnc43)n(-c3ccccc3C(F)(F)F)c(=O)c12 | IC50 | < 100 nM
CCc1ccccc1-n1c(Cn2nc(-c3cccc(O)c3)c3c(N)ncnc32)nc2scc(C)c2c1=O | IC50 | < 100 nM
Cc1cccnc1-n1c(Cn2nc(-c3ccc(Cl)c(O)c3)c3c(N)ncnc32)cc2cccc(C)c2c1=O | IC50 | < 100 nM
Cc1cccc2cc(Cn3nc(-c4cc(O)cc(F)c4)c4c(N)ncnc43)n(-c3ccccc3C(C)C)c(=O)c12 | IC50 | < 100 nM
Cc1cccc2cc(Cn3nc(C=C4SC(=O)NC4=O)c4c(N)ncnc43)n(-c3ccccc3F)c(=O)c12 | IC50 | < 100 nM
COc1ccccc1-n1c(Cn2nc(-c3cc(O)cc(F)c3)c3c(N)ncnc32)nc2scc(C)c2c1=O | IC50 | < 100 nM
Cc1ccccc1-n1c(Cn2nc(-c3cccc(O)c3)c3c(N)ncnc32)cc2nccc(C)c2c1=O | IC50 | < 100 nM
